Overview of recorded MIC for various substances
# Tested on: Pseudomonas aeruginosa
# TEST PROTOCOL: MIC against Gram-negative bacteria: Pseudomonas aeruginosa
# Assay type: cell-based
# MEASUREMENT SETUP: P. aeruginosa; 10 h cultivation at 37° C.

{"SUBSTANCE": "PRT925 (DINECHSDPCQNDATCLDKIGGFTCLCMPGFKGVHCE; listed as Homo sapiens)", "UNITS SYMBOL": "µg/mL", "MIC": 50}
{"SUBSTANCE": "PRT1031 (MCVTYHNGTGYCKCPEGFLGEYCQ; listed as Homo sapiens)", "UNITS SYMBOL": "µg/mL", "MIC": 12.5}
{"SUBSTANCE": "PRT1007 (HVNPCESRPCQNGATCMAQPSGYLCQCAPGYDGQNCS; listed as Homo sapiens)", "UNITS SYMBOL": "µg/mL", "MIC": 25}
{"SUBSTANCE": "PRT957 (APPCLDGSPCANGGRCTQLPSREAACLCPPGWVGERCQ; listed as Homo sapiens)", "UNITS SYMBOL": "µg/mL", "MIC": 50}
{"SUBSTANCE": "PRT1023 (PINYCETGLHNCDIPQRAQCIYTGGSSYTCSCLPGFSGDGQACQ; listed as Homo sapiens)", "UNITS SYMBOL": "µg/mL", "MIC": 25}
{"SUBSTANCE": "PRT1017 (NPDNCVSHQCQNGGTCQDGLDTYTCLCPETWTGWDCS; listed as Homo sapiens)", "UNITS SYMBOL": "µg/mL", "MIC": 12.5}
{"SUBSTANCE": "PRT954 (NIDDCPNHRCQNGGVCVDGVNTYNCRCPPQWTGQFCT; listed as Homo sapiens)", "UNITS SYMBOL": "µg/mL", "MIC": 12.5}
{"SUBSTANCE": "PRT1030 (DVDECSENRCHPAATCYNTPGSFSCRCQPGYYGDGFQCI; listed as Homo sapiens)", "UNITS SYMBOL": "µg/mL", "MIC": 50}
{"SUBSTANCE": "PRT898 (NNNECESNPCVNGGTCKDMTSGYVCTCREGFSGPNCQ; listed as Homo sapiens)", "UNITS SYMBOL": "µg/mL", "MIC": 25}
{"SUBSTANCE": "PRT1042 (SGFFCPSTHSCQNGGVFQTPQGSCSCPPGWMGTICS; listed as Homo sapiens)", "UNITS SYMBOL": "µg/mL", "MIC": 12.5}
{"SUBSTANCE": "PRT998 (VPLCAPNLCQPKQICKDQKDKANCLCPDGSPGCA; listed as Homo sapiens)", "UNITS SYMBOL": "µg/mL", "MIC": 12.5}

----------
# Tested on: Proteus vulgaris
# TEST PROTOCOL: MIC against Gram-negative bacteria: Proteus vulgaris
# Format: cell-based
# MEASUREMENT SETUP: 96-well plate, 5×10^5 CFU/mL, 37° C., 10 h
# Description: 1. Gram-negative bacteria, such as E. coli BL21, Pseudomonas aeruginosa, Klebsiella pneumonia, Enterobacter cloacae, Aeromonas hydrophila, Citrobacter diversus, Moraxella catarrhalis, Proteus mirabilis, Proteus vulgaris, Serratia marcescens, etc were streaked on solid LB medium and cultured respectively. Then, typical clones were picked, inoculated into common liquid LB medium respectively, and cultured at 37° C. with shaking at 185 rpm until the McFarland specific turbidity was 0.5. […]
Overview of recorded MIC against P. vulgaris for various substances

{"SUBSTANCE": "PRT456 (DIDECADSEACGEARCKNLPGSYSCLCDEGFAYSSQEKACR; listed as Homo sapiens)", "UNITS SYMBOL": "µg/mL", "MIC against P. vulgaris": 12.5}
{"SUBSTANCE": "PRT516 (CNCSGLGSKNEDPCFGPCICKENVEGGDCSRCKSGFFNLQEDNWKGCDE; listed as Homo sapiens)", "UNITS SYMBOL": "µg/mL", "MIC against P. vulgaris": 25}
{"SUBSTANCE": "PRT539 (CDCSGNSDPNLIFEDCDEVTGQCRNCLRNTTGFKCERCAPGYYGDARIAKNCAV; listed as Homo sapiens)", "UNITS SYMBOL": "µg/mL", "MIC against P. vulgaris": 12.5}
{"SUBSTANCE": "PRT447 (DVDECAQALHDRRPSQDCHNLSGSYQCTCPDGYRKIGPE; listed as Homo sapiens)", "UNITS SYMBOL": "µg/mL", "MIC against P. vulgaris": 12.5}
{"SUBSTANCE": "PRT501 (CGCNPVGSASDEPCTGPCVCKENVEGKACDRCKPGFYNLKEKNPRGCSE; listed as Homo sapiens)", "UNITS SYMBOL": "µg/mL", "MIC against P. vulgaris": 25}
{"SUBSTANCE": "PRT519 (CQCNDNLDFSIPGSCDSLSGSCLICKPGTTGRYCELCADGYFGDAVDAKNCQP; listed as Homo sapiens)", "UNITS SYMBOL": "µg/mL", "MIC against P. vulgaris": 25}
{"SUBSTANCE": "PRT515 (CHCDPIGSLNEVCVKDEKHARRGLAPGSCHCKTGFGGVSCDRCARGYTGYPDCKA; listed as Homo sapiens)", "UNITS SYMBOL": "µg/mL", "MIC against P. vulgaris": 12.5}
{"SUBSTANCE": "PRT553 (CQCPGGRCDPHTGRCNCPPGLSGERCDTCSQQHQVPVPGGPVGHSIHCEV; listed as Homo sapiens)", "UNITS SYMBOL": "µg/mL", "MIC against P. vulgaris": 50}
{"SUBSTANCE": "PRT520 (CRCNAGGSFSEVCHSQTGQCECRANVQGQRCDKCKAGTFGLQSARGCVP; listed as Homo sapiens)", "UNITS SYMBOL": "µg/mL", "MIC against P. vulgaris": 12.5}
{"SUBSTANCE": "PRT544 (CDCGARLCDELTGQCICPPRTIPPDCLLCQPQTFGCHPLVGCEE; listed as Homo sapiens)", "UNITS SYMBOL": "µg/mL", "MIC against P. vulgaris": 12.5}
{"SUBSTANCE": "PRT586 (CPCPEGPGSQRHFATSCHQDEYSQQIVCHCRAGYTGLRCEACAPGHFGDPSRPGGRCQL; listed as Homo sapiens)", "UNITS SYMBOL": "µg/mL", "MIC against P. vulgaris": 25}
{"SUBSTANCE": "PRT576 (CTCNLLGTNPQQCPSPDQCHCDPSSGQCPCLPNVQGPSCDRCAPNFWNLTSGHGCQP; listed as Homo sapiens)", "UNITS SYMBOL": "µg/mL", "MIC against P. vulgaris": 50}
{"SUBSTANCE": "PRT507 (CICYGHARACPLDPATNKSRCECEHNTCGDSCDQCCPGFHQKPWRAGTFLTKTECEA; listed as Homo sapiens)", "UNITS SYMBOL": "µg/mL", "MIC against P. vulgaris": 50}
{"SUBSTANCE": "PRT490 (CASAPCRNGGVCREGWNRFICDCIGTGFLGRVCE; listed as Homo sapiens)", "UNITS SYMBOL": "µg/mL", "MIC against P. vulgaris": 50}
{"SUBSTANCE": "PRT557 (CGCSPAGTLPEGCDEAGRCLCQPEFAGPHCDRCRPGYHGFPNCQA; listed as Homo sapiens)", "UNITS SYMBOL": "µg/mL", "MIC against P. vulgaris": 25}

----------
Overview of recorded MIC against E. coli BL21 for various substances
# Test system: E. coli BL21
# TEST PROTOCOL: MIC against Gram-negative bacteria: E. coli BL21
# Format: cell-based
# MEASUREMENT SETUP: E. coli BL21; 96-well plate, 5×10^5 CFU/mL, 37° C., 10 h
# Experimental: 1. Gram-negative bacteria, such as E. coli BL21, Pseudomonas aeruginosa, Klebsiella pneumonia, Enterobacter cloacae, Aeromonas hydrophila, Citrobacter diversus, Moraxella catarrhalis, Proteus mirabilis, Proteus vulgaris, Serratia marcescens, etc were streaked on solid LB medium and cultured respectively. Then, typical clones were picked, inoculated into common liquid LB medium respectively, and cultured at 37° C. with shaking at 185 rpm until the McFarland specific turbidity was 0.5. […]

{"SUBSTANCE": "PRT1240 (WGPDCRESCPCHPHGQCEPATGACQCQADRWGARCE; listed as Homo sapiens)", "MIC against E. coli BL21 / µg/mL": 50}
{"SUBSTANCE": "PRT1241 (WSSTCRRPCQCNTAAARCEQATGACVCKPGWWGRRCS; listed as Homo sapiens)", "MIC against E. coli BL21 / µg/mL": 25}
{"SUBSTANCE": "PRT1207 (DIDECSDGFVQCDSRANCINLPGWYHCECRDGYHDNGMFSPSGESCE; listed as Homo sapiens)", "MIC against E. coli BL21 / µg/mL": 25}
{"SUBSTANCE": "PRT1321 (AIDECELDMRGGCHTDALCSYVGPGQSRCTCKLGFAGDGYQCS; listed as Homo sapiens)", "MIC against E. coli BL21 / µg/mL": 12.5}
{"SUBSTANCE": "PRT1320 (PSNPCSHPDRGGCSENAECVPGSLGTHHCTCHKGWSGDGRVCV; listed as Homo sapiens)", "MIC against E. coli BL21 / µg/mL": 12.5}
{"SUBSTANCE": "PRT1267 (CNHGNGGCQHSCDDTADGPECSCHPQYKMHTDGRSC; listed as Homo sapiens)", "MIC against E. coli BL21 / µg/mL": 25}
{"SUBSTANCE": "PRT1305 (SANACSAFKCHHGQCHISDQGEPYCLCQPGFSGEHCQ; listed as Homo sapiens)", "MIC against E. coli BL21 / µg/mL": 50}
{"SUBSTANCE": "PRT1327 (EINPCLENHGGCDKNAECTQTGPNQAACNCLPAYTGDGKVCT; listed as Homo sapiens)", "MIC against E. coli BL21 / µg/mL": 12.5}
{"SUBSTANCE": "PRT1282 (SLDSCSSGPCENGGTCHAQEGEDAPFTCSCPTGFEGPTCG; listed as Homo sapiens)", "MIC against E. coli BL21 / µg/mL": 50}
{"SUBSTANCE": "PRT1273 (DVDECEREDNAGCVHDCVNIPGNYRCTCYDGFHLAHDGHNCL; listed as Homo sapiens)", "MIC against E. coli BL21 / µg/mL": 50}
{"SUBSTANCE": "PRT1293 (KLDFCAQDLNPCQHDSKCILTPKGFKCDCTPGYVGEHCD; listed as Homo sapiens)", "MIC against E. coli BL21 / µg/mL": 12.5}
{"SUBSTANCE": "PRT1287 (EPCRKLYCLHGICQPNATPGPMCHCEAGWVGLHCD; listed as Homo sapiens)", "MIC against E. coli BL21 / µg/mL": 25}
{"SUBSTANCE": "PRT1283 (NTDDCVDHACANGGVCVDGVGNYTCQCPLQYEGKACE; listed as Homo sapiens)", "MIC against E. coli BL21 / µg/mL": 50}
{"SUBSTANCE": "PRT1218 (DINECEREECENGGSCVNVFGSFLCNCTPGYVGQYCG; listed as Homo sapiens)", "MIC against E. coli BL21 / µg/mL": 25}
{"SUBSTANCE": "PRT1271 (DTNECSINNGGCQQVCVNTVGSYECQCHPGYKLHWNKKDCV; listed as Homo sapiens)", "MIC against E. coli BL21 / µg/mL": 50}
{"SUBSTANCE": "PRT1203 (DIDECAEGRHYCRENTMCVNTPGSFMCICKTGYIRIDDYSCT; listed as Homo sapiens)", "MIC against E. coli BL21 / µg/mL": 12.5}
{"SUBSTANCE": "PRT1212 (DIDECSGNPCLHGALCENTHGSYHCNCSHEYRGRHCE; listed as Homo sapiens)", "MIC against E. coli BL21 / µg/mL": 25}
{"SUBSTANCE": "PRT1239 (TIPICEGPDACQKDEVCVKPGLCRCKPGFFGAHCS; listed as Homo sapiens)", "MIC against E. coli BL21 / µg/mL": 12.5}
{"SUBSTANCE": "PRT1337 (QTSACGPYVQFCHIHATCEYSNGTASCICKAGYEGDGTLCS; listed as Homo sapiens)", "MIC against E. coli BL21 / µg/mL": 50}
{"SUBSTANCE": "PRT1288 (ADGPCHGHKCVHGQCVPLDALSYSCQCQDGYSGALCN; listed as Homo sapiens)", "MIC against E. coli BL21 / µg/mL": 25}
{"SUBSTANCE": "PRT1322 (PIDPCRAGNGGCHGLATCRAVGGGQRVCTCPPGFGGDGFS; listed as Homo sapiens)", "MIC against E. coli BL21 / µg/mL": 25}
{"SUBSTANCE": "PRT1243 (FGESCEQQCPHCRHGEACEPDTGHCQRCDPGWLGPRCE; listed as Homo sapiens)", "MIC against E. coli BL21 / µg/mL": 50}
{"SUBSTANCE": "PRT1272 (DVDECVEGTDNCHIDAICQNTPRSYKCICKSGYTGDGKHCK; listed as Homo sapiens)", "MIC against E. coli BL21 / µg/mL": 50}
